Where these numbers come from: ChEMBL document CHEMBL4049446

System: Human immunodeficiency virus 1
protocol description: Antiviral activity against HIV1 Lai infected in human MT2 cells
Assay type: functional, cell-based
test parameters: Human immunodeficiency virus 1, M:B_Lai
Label 1 (yes) when IC50 is strictly below 3 nM; otherwise label 0 (no).

# compound, target, cat
records = [
    ("CC(C)(C)NC(=O)[C@@H]1C[C@@H]2CCCC[C@@H]2CN1C[C@@H](O)[C@H](Cc1ccccc1)NC(=O)[C@H](CC(N)=O)NC(=O)c1ccc2ccccc2n1", "Human immunodeficiency virus 1", "0 (no)"),
    ("CC(C)CN(C[C@@H](O)[C@H](Cc1ccccc1)NC(=O)O[C@H]1C2CO[C@H]3OCC1C3C2)S(=O)(=O)c1ccc2nc(NC3CC3)sc2c1 (stereo partly specified)", "Human immunodeficiency virus 1", "1 (yes)"),
    ("CC(C)CN(C[C@@H](O)[C@H](Cc1ccccc1)NC(=O)O[C@H]1C2CO[C@H]3OCC1C3C2)S(=O)(=O)c1ccc(N)cc1 (stereo partly specified)", "Human immunodeficiency virus 1", "1 (yes)"),
    ("COc1ccc(S(=O)(=O)N(CC(C)C)C[C@@H](O)[C@H](Cc2ccccc2)NC(=O)O[C@@H]2C3CO[C@H]4OCC2C4C3)cc1 (stereo partly specified)", "Human immunodeficiency virus 1", "0 (no)"),
    ("CC(C)CN(C[C@@H](O)[C@H](Cc1ccccc1)NC(=O)O[C@H]1CO[C@H]2OCC[C@H]21)S(=O)(=O)c1ccc2nc(NC3CC3)sc2c1", "Human immunodeficiency virus 1", "1 (yes)"),
    ("COc1ccc(S(=O)(=O)N(CC(C)C)C[C@@H](O)[C@H](Cc2ccccc2)NC(=O)O[C@H]2C3CO[C@H]4OCC2C4C3)cc1 (stereo partly specified)", "Human immunodeficiency virus 1", "1 (yes)"),
]

* * *

Test system: Human immunodeficiency virus 1
protocol description: Antiviral activity against tipranavir-resistant HIV1 NL4-3 harboring protease L10I/L33I/M36I/M46I/I54V/K55R/I62V/L63P/A71V/G73S/V82T/L90M/I93L mutant infected in human MT4 cells assessed as reduction in p24 Gag protein production after 7 days by chemiluminescent enzyme immunoassay
Format: functional, cell-based
test parameters: Human immunodeficiency virus 1, NL4-3, MT4, 168 h
endpoint: IC50

# molecule, value
rows = [
    ("COC(=O)N[C@H](C(=O)N[C@@H](Cc1ccccc1)[C@@H](O)CN(Cc1ccc(-c2ccccn2)cc1)NC(=O)[C@@H](NC(=O)OC)C(C)(C)C)C(C)(C)C", "> 1000 nM"),
    ("CC(C)CN(C[C@@H](O)[C@H](Cc1ccccc1)NC(=O)O[C@H]1C2CO[C@H]3OCC1C3C2)S(=O)(=O)c1ccc2nc(NC3CC3)sc2c1 (stereo partly drawn)", "0.057 nM"),
    ("Cc1cccc(C)c1OCC(=O)N[C@@H](Cc1ccccc1)[C@@H](O)C[C@H](Cc1ccccc1)NC(=O)[C@H](C(C)C)N1CCCNC1=O", "> 1000 nM"),
]

* * *

Test system: Human immunodeficiency virus 1
protocol description: Antiviral activity against wild type HIV1 NL4-3 infected in human MT4 cells assessed as reduction in p24 Gag protein production after 7 days by chemiluminescent enzyme immunoassay
Type: functional, cell-based
test parameters: Human immunodeficiency virus 1, NL4-3, MT4, 168 h

# compound, unit symbol, IC50
data = [
    ("CC(C)CN(C[C@@H](O)[C@H](Cc1ccccc1)NC(=O)O[C@H]1C2CO[C@H]3OCC1C3C2)S(=O)(=O)c1ccc2nc(NC3CC3)sc2c1 (stereo not given in full)", "nM", 0.39),
    ("CC(C)CN(C[C@@H](O)[C@H](Cc1ccccc1)NC(=O)O[C@H]1C2CO[C@H]3OCC1C3C2)S(=O)(=O)c1ccc(N)cc1 (stereo not given in full)", "nM", 3.3),
    ("Cc1cccc(C)c1OCC(=O)N[C@@H](Cc1ccccc1)[C@@H](O)C[C@H](Cc1ccccc1)NC(=O)[C@H](C(C)C)N1CCCNC1=O", "nM", 20),
    ("CC(C)CN(C[C@@H](O)[C@H](Cc1ccccc1)NC(=O)O[C@H]1CO[C@H]2OCC[C@H]21)S(=O)(=O)c1ccc2nc(NC3CC3)sc2c1", "nM", 2),
    ("COC(=O)N[C@H](C(=O)N[C@@H](Cc1ccccc1)[C@@H](O)CN(Cc1ccc(-c2ccccn2)cc1)NC(=O)[C@@H](NC(=O)OC)C(C)(C)C)C(C)(C)C", "nM", 4.2),
]
